Target: T1, NLpoly 5A2 (G15A/G35A/G51A/G67A/G71A)
T1 chain: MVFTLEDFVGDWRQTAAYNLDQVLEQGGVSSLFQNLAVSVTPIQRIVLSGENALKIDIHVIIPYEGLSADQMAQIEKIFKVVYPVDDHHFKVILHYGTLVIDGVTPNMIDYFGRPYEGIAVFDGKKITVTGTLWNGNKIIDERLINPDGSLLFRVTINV
Experiment: luminescence complementation, one-site specific binding; replicate 2
readout: Kd

Q: Please give measured Kd of the following entry: Ac-VSGWRLFKKIS-NH2 [NLpep86]
Result: 110 nM
